Origin of the recorded values: patent US7365053B2

tested on: Enterococcus faecalis 2041; experiment: Broth micro-dilution MIC; type: cell-based; settings: BHI medium
quantity: MIC

[[record]]
molecule = "CCCCCCCC(=O)N(C)C(CC(C)C)C(=O)NC1C(=O)NC(CC(N)=O)C(=O)NC2C(=O)NC3C(=O)NC(C(=O)NC(C(=O)O)c4cc(O)cc(O)c4-c4cc3ccc4O)C(OC3CC(C)(N)C(O)C(C)O3)c3ccc(c(Cl)c3)Oc3cc2cc(c3OC2OC(CO)C(O)C(O)C2OC2CC(C)(N)C(O)C(C)O2)Oc2ccc(cc2Cl)C1O (stereo not shown) [Example 10, 1′-N-octanoyl-A82846B]"
quantity = "MIC"
measured_value = "0.25 µg/mL"

[[record]]
molecule = "CNC(CC(C)C)C(=O)NC1C(=O)NC(CC(N)=O)C(=O)NC2C(=O)NC3C(=O)NC(C(=O)NC(C(=O)O)c4cc(O)cc(O)c4-c4cc3ccc4O)C(OC3CC(C)(NC(=O)CCCCCCCc4ccccc4)C(O)C(C)O3)c3ccc(c(Cl)c3)Oc3cc2cc(c3OC2OC(CO)C(O)C(O)C2OC2CC(C)(N)C(O)C(C)O2)Oc2ccc(cc2Cl)C1O (stereo not shown) [Example 12]"
quantity = "MIC"
measured_value = "≦.06 μg/ml"

[[record]]
molecule = "CNC(CC(C)C)C(=O)NC1C(=O)NC(CC(N)=O)C(=O)NC2C(=O)NC3C(=O)NC(C(=O)NC(C(=O)O)c4cc(O)cc(O)c4-c4cc3ccc4O)C(OC3CC(C)(N)C(O)C(C)O3)c3ccc(c(Cl)c3)Oc3cc2cc(c3OC2OC(CO)C(O)C(O)C2OC2CC(C)(NC(=O)c3ccc(-c4ccc(Cl)cc4)cc3)C(O)C(C)O2)Oc2ccc(cc2Cl)C1O (stereo not shown) [Example 4]"
quantity = "MIC"
measured_value = "≦.06 μg/ml"

[[record]]
molecule = "CC(C)CC(C(=O)NC1C(=O)NC(CC(N)=O)C(=O)NC2C(=O)NC3C(=O)NC(C(=O)NC(C(=O)O)c4cc(O)cc(O)c4-c4cc3ccc4O)C(OC3CC(C)(N)C(O)C(C)O3)c3ccc(c(Cl)c3)Oc3cc2cc(c3OC2OC(CO)C(O)C(O)C2OC2CC(C)(N)C(O)C(C)O2)Oc2ccc(cc2Cl)C1O)N(C)C(=O)c1ccc(-c2ccccc2)cc1 (stereo not shown) [Example 3]"
quantity = "MIC"
measured_value = "≦.06 μg/ml"


====

test system: Escherichia coli EC14; test: Broth micro-dilution MIC; assay type: cell-based
quantity: MIC

[[record]]
compound = "CNC(CC(C)C)C(=O)NC1C(=O)NC(CC(N)=O)C(=O)NC2C(=O)NC3C(=O)NC(C(=O)NC(C(=O)O)c4cc(O)cc(O)c4-c4cc3ccc4O)C(OC3CC(C)(N)C(O)C(C)O3)c3ccc(c(Cl)c3)Oc3cc2cc(c3OC2OC(CO)C(O)C(O)C2OC2CC(C)(NC(=O)c3ccc(-c4ccccc4)cc3)C(O)C(C)O2)Oc2ccc(cc2Cl)C1O (centres unmarked)"
quantity = "MIC"
measured_value = ">64 µg/mL"


API: the following record is the query input.
Req: Query (compound): CCCCCCCCOc1ccc(C(=O)NC2(C)CC(OC3C(Oc4c5cc6cc4Oc4ccc(cc4Cl)C(OC4CC(C)(N)C(O)C(C)O4)C4NC(=O)C(NC(=O)C6NC(=O)C(CC(N)=O)NC(=O)C(NC(=O)C(CC(C)C)NC)C(O)c6ccc(c(Cl)c6)O5)c5ccc(O)c(c5)-c5c(O)cc(O)cc5C(C(=O)O)NC4=O)OC(CO)C(O)C3O)OC(C)C2O)cc1 (centres unmarked) ; field requested: MIC
Resp: >64 µg/mL
